Source of measurements: PubChem BioAssay (Tox21)

# assayed.system: Androgen receptor (Homo sapiens) (UniProt P10275)
# Sequence (P10275 whole entry, looked up): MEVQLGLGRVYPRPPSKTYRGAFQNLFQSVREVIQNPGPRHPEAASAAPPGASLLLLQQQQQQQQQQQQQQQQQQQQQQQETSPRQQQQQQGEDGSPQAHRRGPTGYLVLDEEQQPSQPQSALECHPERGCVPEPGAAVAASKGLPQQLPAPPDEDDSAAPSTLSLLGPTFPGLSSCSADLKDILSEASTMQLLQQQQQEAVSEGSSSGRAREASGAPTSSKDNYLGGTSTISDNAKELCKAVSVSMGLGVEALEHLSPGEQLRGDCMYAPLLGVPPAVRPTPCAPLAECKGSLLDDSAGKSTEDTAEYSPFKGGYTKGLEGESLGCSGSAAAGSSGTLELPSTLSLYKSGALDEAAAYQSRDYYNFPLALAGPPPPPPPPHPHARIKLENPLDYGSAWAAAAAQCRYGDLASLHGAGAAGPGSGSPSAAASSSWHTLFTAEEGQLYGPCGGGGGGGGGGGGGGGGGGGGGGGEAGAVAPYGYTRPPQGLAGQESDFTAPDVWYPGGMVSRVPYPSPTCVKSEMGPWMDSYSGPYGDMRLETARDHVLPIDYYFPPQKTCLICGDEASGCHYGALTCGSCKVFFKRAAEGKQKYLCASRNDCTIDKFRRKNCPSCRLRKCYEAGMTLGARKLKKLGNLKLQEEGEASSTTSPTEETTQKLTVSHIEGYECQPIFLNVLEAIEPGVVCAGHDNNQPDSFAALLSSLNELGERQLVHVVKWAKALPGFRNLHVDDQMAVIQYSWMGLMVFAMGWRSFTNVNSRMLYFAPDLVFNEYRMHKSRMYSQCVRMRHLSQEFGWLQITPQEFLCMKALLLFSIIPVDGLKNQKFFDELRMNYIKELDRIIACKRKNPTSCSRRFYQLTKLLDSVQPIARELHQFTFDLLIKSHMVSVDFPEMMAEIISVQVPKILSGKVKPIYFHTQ
# method.notes: qHTS assay to identify small molecule agonists of the androgen receptor (AR) signaling pathway using the MDA cell line (AID 743040; also: nearly all actives have a fitted effect of over 20% in size)
# recorded.conditions: MDA-kb2 AR-luc cells, MMTV luciferase, 16 h; series mostly up to 70.3 µM
Calls of active or inactive are those of the source. Calls follow the shape of the dose curve; as a rule, active = well fitted activation curve with a large enough effect in the repeat runs; inconclusive = weak or mixed curves; inactive = flat fitted curve, though single readings scatter.
Output constraint: value belongs to Y (active), N (inactive)

Field: example entries. Status: answers known.
compound=c1cc[c]([Hg][c]2ccccc2)cc1 label_class=N
compound="CC(C)(C)NCC(O)c1cc(Cl)c(N)c(Cl)c1 (configuration not stated)" label_class=N
compound=CC(C)CC#N label_class=N
compound="COc1ccc2c(c1OC)CN1CCc3cc4c(cc3C1C2)OCO4 (configuration not stated)" label_class=N
compound=c1cc2c(c(N3CCNCC3)c1)OCCO2 label_class=N

Prompt line: In this assay, the call recorded for `CNC(=O)N(C)c1nc2ccccc2s1` was what?
Response line: N

Prompt line: In this assay, the call recorded for `O=C(Nc1ccccc1)c1ccccc1I` was what?
Response line: N

Prompt line: In this assay, the call recorded for CCN(CC)C(C)C(=O)c1ccccc1 (configuration not stated) was what?
Response line: N

Prompt line: In this assay, the call recorded for `CCOP(=O)(OCC)OP(=O)(OCC)OCC` was what?
Response line: N

Prompt line: In this assay, the call recorded for CC(COc1ccc(Oc2ccccc2)cc1)Oc1ccccn1 (configuration not stated) was what?
Response line: N

Prompt line: In this assay, the call recorded for `O=[N+]([O-])c1cccc2c([N+](=O)[O-])cccc12` was what?
Response line: N

Prompt line: In this assay, the call recorded for `CCC(C)(C)c1cc(-n2nc3ccccc3n2)c(O)c(C(C)(C)CC)c1` was what?
Response line: N

Prompt line: In this assay, the call recorded for `CNC(=O)Oc1c(C(C)(C)C)cc(C)cc1C(C)(C)C` was what?
Response line: N

Prompt line: In this assay, the call recorded for `O=C(O)c1ccc2[nH]cc(CCCCN3CC=C(c4ccccc4)CC3)c2c1` was what?
Response line: N

Prompt line: In this assay, the call recorded for `Nc1c(Br)cc([N+](=O)[O-])cc1[N+](=O)[O-]` was what?
Response line: N

Prompt line: In this assay, the call recorded for `CCCCCCI` was what?
Response line: N

Prompt line: In this assay, the call recorded for `O=C(CCCN1CCC(n2c(=O)[nH]c3ccccc32)CC1)c1ccc(F)cc1` was what?
Response line: N

Prompt line: In this assay, the call recorded for `O=C(N[C@H]1CN2CCC1CC2)c1cc2ccoc2cn1` was what?
Response line: N

Prompt line: In this assay, the call recorded for `C#C[C@]1(O)C=C[C@H]2[C@@H]3CCC4=CC(=O)CC[C@@H]4[C@H]3CC[C@@]21CC` was what?
Response line: Y

---

# method.notes: A CellTox Green Cytotoxicity Assay to monitor cytotoxicity in HepG2 cells - 40 hour (AID 1224879); also: nearly all actives have a fitted effect of over 40% in size
# recorded.conditions: CellTox Green fluorescence; series mostly up to 76.8 µM
# Excerpt: National Center for Advancing Translational Sciences [NCATS] NIH Chemical Genomics Center [NCGC] U.S. Environmental Protection Agency [EPA] National Institutes of Environmental Health Sciences [NIEHS] National Toxicology Program [NTP] Cell-based models are critical for drug discovery. […] Viable cells produce no appreciable increases in fluorescence. Therefore, the fluorescence signal produced by the binding interaction with dead cell DNA is proportional to cytotoxicity. […]
Results filed as inconclusive are left out. Calls of active or inactive are those of the source. Calls come from the whole dose curve; as a rule, active = well fitted activation curve with a large enough effect in the repeat runs; inconclusive = weak or mixed curves; inactive = flat fitted curve, though single readings scatter.
Output constraint: value belongs to YES (active), NO (inactive)

Field: example entries. Status: answers known.
compound=COc1cc(OC)nc(NC(=O)NS(=O)(=O)c2ncccc2C(=O)N(C)C)n1 label_class=NO
compound=ClC(Cl)(Cl)C(Cl)(Cl)Cl label_class=NO
compound=O=NN1CCCCC1 label_class=NO

Prompt line: In this assay, the call recorded for `COP(=S)(OC)Oc1ccc(S(N)(=O)=O)cc1` was what?
Response line: NO

Prompt line: In this assay, the call recorded for `CCCCc1ccc(O)cc1` was what?
Response line: YES

Prompt line: In this assay, the call recorded for `ClCC(Cl)(Cl)Cl` was what?
Response line: NO

Prompt line: In this assay, the call recorded for `Cc1ncc2n1-c1ccc(Cl)cc1C(c1ccccc1F)=NC2` was what?
Response line: NO

Prompt line: In this assay, the call recorded for `Nc1n[nH]c(N)n1` was what?
Response line: NO
